Each recorded value in this set is attributed to PubChem BioAssay.

Exercise: state measured composite z-score for each of the compounds provided.
test_system: Torsin-1A (Homo sapiens)
assay_notes: torsin A mutant lysate binding on microarrays – cell lysate, small-molecule microarray, COS7 lysate, 635/667 nm fluorescence, primary screen (AID 1150);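 also: score pools 667 nm emission and signal to noise measuring lysate protein binding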
details: COS7 hTOR1A mutant lysate, 635 nm fluorescence, higher = more signal

Asked: Given `COC(=O)C(CC#Cc1ccc2c(c1)[C@]1(C(=O)N2)[C@H](c2ccc(OCCO)cc2)N2[C@H](c3ccccc3)[C@H](c3ccccc3)OC(=O)[C@H]2[C@@H]1C(=O)N1CCCCCCC1)C(=O)OC` , state its recorded composite z-score.
Given back: 1.9

Asked: Check `COc1ccc(CCNC(=O)[C@@H]2c3ccccc3C(=O)N(Cc3ccccc3OC)[C@H]2c2ccc(CO)cc2)cc1` too.
Given back: 0.321

Asked: Then `CO[C@H]1O[C@H](CO)[C@@H](OC(=O)Nc2ccccc2-c2ccccc2)[C@H](OC(=O)Nc2ccccc2)[C@H]1OC(=O)Nc1ccccc1` ?
Given back: 1.6

Asked: Would you mind doing `COCCOC(=O)N1C(=O)[C@@]2(c3cc(C#CCCO)ccc31)[C@H](C(N)=O)[C@H]1C(=O)O[C@H](c3ccccc3)[C@H](c3ccccc3)N1[C@@H]2c1ccccc1OCCO` as well?
Given back: 0.791

Asked: Same lookup for `CC(C)=C1C(=O)C(c2ccccc2)=C2CN3C(=O)N(CCc4ccccc4)C(=O)[C@]3(C)[C@H]21` , please.
Given back: -0.124

Asked: Note, next up: `O=C(O)[C@H](Cc1ccccc1)n1cc(C2(O)CCCCC2)nn1`
Given back: 0.327

Asked: Also `C=C(CCCC)/C(=C/C[C@H](OC(=O)c1ccncc1)c1ccc(OCCO)cc1)c1cnc2ccccc2c1` , if possible.
Given back: 0.667

====

assay_notes: ATP-based viability of Huh7 replicon cells – cell-based, CellTiter-Glo luminescence, basal, 48 h, cytotoxicity control for HCV replication inhibitor project, primary screen (AID 1143);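 also: Huh7 hepatoma cells carrying a hepatitis C replication reporter with no stimulus; test concentration not given here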
details: called active from +8 up or from −8 down
Calls of active or inactive are those of the source.
Choose the fitting class; nothing outside active, inactive is accepted.

Asked: Identify the outcome logged in this assay for the compound shown: `COc1ccccc1CN1C(=O)c2ccccc2[C@](Cc2ccccc2I)(C(=O)NCC(C)C)[C@@H]1c1ccc(CO)cc1`
Given back: inactive

Asked: Would you kindly repeat that for `O=C(NCCN1CCOCC1)[C@@H]1c2ccccc2C(=O)N(Cc2ccc(OC(F)(F)F)cc2)[C@H]1c1ccc(CO)cc1` ?
Given back: inactive

Asked: # repeat for C=CC[C@]1(C(=O)NCC(O)CO)COC(c2ccc(OCCCO)cc2)=N1 (stereo partly specified)
Given back: inactive

Asked: Please answer likewise for `COc1ccc([Si](C)(C)[C@@H]2[C@@H](CC(=O)N(CCO)Cc3ccccc3)O[C@]3(C(=O)N(Cc4ccc(N5C(=O)c6cccc7cccc5c67)cc4)c4ccccc43)[C@H]2C)cc1`
Given back: inactive

Asked: How about C=CCC(OC(C)=O)[C@@H]1[C@@H](N(Cc2ccc(-c3cccc(C(F)(F)F)c3)o2)C(=O)Cc2ccc(F)cc2)c2cc(OCCCO)ccc2N1C(=O)Cc1ccc2ccccc2c1 (stereo partly specified) ?
Given back: inactive

Asked: Ok, now `O=C(NC1CC1)[C@@H]1c2ccccc2C(=O)N(CC23CC4CC(CC(C4)C2)C3)[C@H]1c1ccc(CO)cc1`
Given back: inactive

Asked: Same for `CCCC[C@H]1OB(O)C[C@H]2C1=C(COc1ccccc1)C[C@H]1C(=O)C=CC(=O)[C@H]12`
Given back: inactive

Asked: What about this compound? COC(=O)C1=CC(CCCO)=CC(c2cccs2)N(Cc2cc3c(cc2Br)OCO3)C=C1C(=O)OC (stereo unspecified)
Given back: inactive

Asked: # repeat for O=C1C2C=CC(C(O)c3cccs3)N(Nc3ccc([N+](=O)[O-])cc3)C2C(=O)N1c1ccccc1 (stereo unspecified)
Given back: inactive

Asked: Entry to check: `O=C1N(Cc2ccccc2)c2ccccc2C[C@@]12COC(c1ccc(OCCCO)cc1)=N2`
Given back: inactive

Asked: Same lookup for `CN(C)C(=O)[C@@]1(Cc2ccccc2CN=[N+]=[N-])COC(c2ccc(OCCCO)cc2)=N1` , please.
Given back: inactive

Asked: # repeat for `CCOC(=O)C[C@H]1[C@H](OC(=O)c2ccccc2-c2ccccc2)[C@@H](NC(=O)C2CCCCC2)c2cc(OCCCO)ccc2N1C(=O)c1ccc2ccccc2n1`
Given back: inactive

Asked: Here is the next compound: CC(C)(C)N1CC=CC23O[C@@H]4/C=C\CCCOC(=O)C4[C@H]2C(=O)N(CCCCCO)[C@@H]3C1=O (stereo partly specified)
Given back: inactive

Asked: Could you do the same for OCCCC1=CC(c2ccc(CN3CCCC3)cc2)N(Cc2cccc(OC(F)(F)F)c2)CC1 (stereo unspecified) , please?
Given back: active

Asked: Another compound to look at: `C[C@@H]1ON(c2ccccc2)[C@H](c2ccccc2)[C@H]1C(=O)O`
Given back: inactive

Asked: Next record, please: `CN(C)CCCC[C@@H]1NC(=O)[C@H]2C[C@@H](C(=O)O)[C@@H](c3ccc(O)cc3)N2C1=O`
Given back: inactive
